Numbers sourced from patent US20250355001A1.

# assayed.target: dGA (tau 297-390) (human, UniProt P10636 614-707)
# Sequence (P10636 614-707 limits assumed): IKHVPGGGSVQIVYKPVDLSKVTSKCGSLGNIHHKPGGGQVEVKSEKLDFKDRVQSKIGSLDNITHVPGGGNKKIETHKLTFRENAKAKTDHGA
# assay: SPR, scAb captured, tau analyte
outcome.measure: koff (s⁻¹)
Supply the numeric figure in s⁻¹, leaving out any unit text.

Noted for S1E12 scAb (scFv, not shown: small tags and cut ends, scAb) scFv: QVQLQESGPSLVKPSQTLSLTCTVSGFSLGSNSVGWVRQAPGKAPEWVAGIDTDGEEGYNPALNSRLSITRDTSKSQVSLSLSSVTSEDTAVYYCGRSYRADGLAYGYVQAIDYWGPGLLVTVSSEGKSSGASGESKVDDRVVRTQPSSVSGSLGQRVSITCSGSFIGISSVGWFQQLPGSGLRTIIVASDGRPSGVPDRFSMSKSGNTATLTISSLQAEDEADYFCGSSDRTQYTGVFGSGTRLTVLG : its koff reads 0.00163
